Cited source for all entries: paper PMC11862924

Biological target: YTHDF2 (Homo sapiens, UniProt Q9Y5A9)
Construct: A YTHDF2 YTH domain construct (residues 383–553) was subcloned to a pOPIN plasmid; made in house; host or cells: Escherichia coli BL21(DE3)
Sequence (Q9Y5A9 383-553): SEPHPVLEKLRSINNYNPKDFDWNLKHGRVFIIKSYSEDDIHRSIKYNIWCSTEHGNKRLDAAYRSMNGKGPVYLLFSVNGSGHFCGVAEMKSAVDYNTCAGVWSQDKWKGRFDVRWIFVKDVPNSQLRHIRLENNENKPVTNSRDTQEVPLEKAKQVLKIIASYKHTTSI
Assay: Electrophoretic mobility shift assay (EMSA)
Assay type: binding
Details: 3.1–100 μM compound; 250 nM YTHDF2, 20 nM FAM-labelled m6A RNA
Protocol: Compounds with different concentrations (3.1–100 μM) were incubated with 250 nM YTH-domain and 20 nM FAM-17mer-RNA in a buffer containing 20 mM HEPES, pH 8.2, 50 mM NaCl, 0.05% Triton X-100, and 5% v/v glycerol for 20 min at 4 °C. […] Gel imaging was performed in ChemiDoc MP (Bio-Rad), and Cy2/Alexa488 fluorescence was detected with a 1-min exposure time. Quantification of the gel image was performed by ImageJ.
Readout name: concentration-dependent inhibition of YTHDF2–m6A RNA complex formation in EMSA (in words)

Smi	Experimental system	Recorded result
Cc1cc(O)c(C(=O)c2cnn(-c3ccc(C(=O)O)cc3)c2)cc1Cl	YTHDF2 (Homo sapiens, UniProt Q9Y5A9)	potent inhibition
O=C(O)c1ccc(-n2cc(C(=O)c3cc(Cl)cc(Cl)c3O)cn2)cc1	YTHDF2 (Homo sapiens, UniProt Q9Y5A9)	potent inhibition

###

Some compounds, each annotated with its measured IC50 at 72 h.
test: MTT cytotoxicity assay, K562; type: cell-based; conditions: human, K562 cells, triplicates, read-out: Cytotoxicity against cancer cells (IC50), K562

Compound	Op	IC50 at 72 h / µM
Cc1ccc(C(=O)c2cnn(-c3ccc(C(=O)O)cc3)c2)c(O)c1 [CK-73]	>	50
O=C(O)c1ccc(-n2cc(C(=O)c3ccccc3O)cn2)cc1 [CK-24]	=	43.2
COc1ccccc1-n1cc(C(=O)c2ccccc2O)cn1 [CK-46]	=	23.8
O=C(c1cnn(-c2ccccc2F)c1)c1ccccc1O [CK-43]	=	46.2
O=C(c1cnn(-c2ccc(F)cc2)c1)c1ccccc1O [CK-26]	=	23.4
CCc1ccc(O)c(C(=O)c2cnn(-c3ccc(C(=O)O)cc3)c2)c1 [CK-65]	>	50
O=C(O)c1ccc(-n2cc(C(=O)c3cc(Cl)cc(Cl)c3O)cn2)cc1 [CK-61]	>	50
O=C(c1cnn(-c2ccccc2Cl)c1)c1ccccc1O [CK-44]	=	32.3
O=C(c1cnn(-c2ccc(C(F)(F)F)cc2)c1)c1ccccc1O [CK-48]	=	22.8
COc1ccc(-n2cc(C(=O)c3ccccc3O)cn2)cn1 [CK-47]	>	50
Cc1ccc(-n2cc(C(=O)c3ccccc3O)cn2)cc1 [CK-51]	=	20.2
O=C(O)c1ccc(-n2cc(C(=O)c3cc(Br)ccc3O)cn2)cc1 [CK-60]	=	16.4
O=C(O)c1ccc(-n2cc(C(=O)c3cc(Cl)ccc3O)cn2)cc1 [CK-67]	=	34.9
O=C(c1cnn(-c2ccccc2)c1)c1ccccc1O [CK-22]	=	32.1
O=C(O)c1ccc(-n2cc(C(=O)c3ccc(Cl)cc3O)cn2)cc1 [CK-88]	=	43.2
Cc1cc(O)c(C(=O)c2cnn(-c3ccc(C(=O)O)cc3)c2)cc1Cl [CK-79]	=	29.4
O=C(O)c1ccc(-n2cc(C(=O)c3ccc(F)cc3O)cn2)cc1 [CK-89]	=	43.8
